System: SF-539 CNS
Assay: NCI-60 one-dose screen, 48 h
Conditions: 10 µM unless noted
Compounds without any hit were thinned out: in the full panel of roughly 83,000, 20% have a hit. Calls of active or inactive are those of the source. How the source made its calls: active means growth percent below 10; inactive means the rest.
Just give me one of these, please: Y (active), N (inactive)

Q: Answer briefly: the call reported for COc1ccc(NS(=O)(=O)c2ccc(-c3cnc(C4CC4)o3)cc2)cc1 in this assay.
Result: N

Q: Answer briefly: the call reported for COc1ccc(C(=O)COc2cccc(/C=C3\CSc4ccc(C)cc4C3=O)c2)cc1 in this assay.
Result: N

Q: Answer briefly: the call reported for Cc1nc2cc(Nc3nc(Nc4ccc(F)cc4)nc(-c4cccs4)n3)ccc2n1Cc1ccccc1 in this assay.
Result: N

Q: Answer briefly: the call reported for O=c1oc2ccccc2cc1-c1csc(N=Nc2c(O)[nH]c3ccc(Cl)cc23)n1 in this assay.
Result: N

Q: Answer briefly: the call reported for ONc1nc(NO)c2[nH]cnc2n1 in this assay.
Result: N

Q: Answer briefly: the call reported for CCOC(=O)C1=C(C)N2C(=NC3=C(CCCC/C3=C\c3ccccc3)C2c2ccccc2)S1 (centres undefined) in this assay.
Result: N

Q: Answer briefly: the call reported for C[C@]1(CO)C[C@@H](O)C[C@]2(C)[C@@H]1CC[C@@]13C[C@@H]4[C@@H](C[C@H]12)[C@]4(C)C3 in this assay.
Result: N

Q: Answer briefly: the call reported for CC(C)(C)CC(C)(C)N(CSc1ccc(Cl)cc1)CSc1ccc(Cl)cc1 in this assay.
Result: Y

Q: Answer briefly: the call reported for CCOC(=O)c1[nH]c2cc(Cl)ccc2c1[C@@H](C(=O)NC(C)(C)C)N(CC)C(=O)CCCCC#Cc1cccc2c1CN(C1CCC(=O)NC1=O)C2=O (some centres undefined) in this assay.
Result: N

###

System: NCI-H522 lung
Assay: NCI-60 one-dose screen, 48 h
Details: 10 µM
The panel holds about 83,000 compounds, 20% with a hit somewhere; the sample as a whole holds those more often. The source made the active and inactive calls. How the source made its calls: active means growth percent below 10; inactive means the rest.
Just give me one of these, please: 1.0 (active), 0.0 (inactive)

Q: Answer briefly: the call reported for c1ccc2c(c1)oc1cc3c(cc12)nnc1cccn13 in this assay.
Result: 0.0

Q: Answer briefly: the call reported for Cn1c2c(cc(S(=O)(=O)c3ccccc3)c1=O)CCc1c-2cnn1-c1ccccc1Cl in this assay.
Result: 1.0

Q: Answer briefly: the call reported for COc1cc(/C=N/NC(=O)c2cnn3c2NC(c2ccccc2)C3)cc(OC)c1OC (stereo unspecified) in this assay.
Result: 0.0

Q: Answer briefly: the call reported for CCOc1ccc(-c2cnnn2-c2nonc2-n2cccc2)cc1 in this assay.
Result: 1.0

Q: Answer briefly: the call reported for COc1cc(-c2ccc3cc(OC)c(OC)c(OC)c3c2)cc(OC)c1OC in this assay.
Result: 0.0

Q: Answer briefly: the call reported for Brc1ccc(SCN(CSc2ccc(Br)cc2)Cc2ccccc2)cc1 in this assay.
Result: 0.0

Q: Answer briefly: the call reported for COc1ccc(-c2nn(-c3ccc(NC(=O)c4ccc(Cl)c(Cl)c4)cc3)cc2-c2ccncc2)cc1Cl in this assay.
Result: 0.0

Q: Answer briefly: the call reported for O=C1N/C(=C\c2ccccc2)c2ncccc21 in this assay.
Result: 0.0

Q: Answer briefly: the call reported for Cc1c(NCC(=O)Nc2nc3ccccc3[nH]2)c(=O)n(-c2ccccc2)n1C in this assay.
Result: 0.0

Q: Answer briefly: the call reported for O=C(c1ccccc1)C(Br)C(Br)c1cccc([N+](=O)[O-])c1 (stereo unspecified) in this assay.
Result: 1.0

Q: Answer briefly: the call reported for Brc1ccc(Br)nn1 in this assay.
Result: 1.0

Data origin, for the record: PubChem BioAssay (NCI)
